Every entry's value here was drawn from ChEMBL document CHEMBL2203174.

Peptide text beside a SMILES is read from it. * marks the point of attachment. Cbz = O=C(OCc1ccccc1)*; Acryloyl = C=CC(=O)*; OtBu = CC(C)(C)O*
quantity: pIC50
Scale note: pIC50 = -log10(concentration in M).

Enquiry: Test system Protein-glutamine gamma-glutamyltransferase 2 (Mus musculus); read-out pIC50; what value for C=CC(=O)NCCCC[C@H](NC(=O)OCc1ccccc1)C(=O)NCC(=O)OC(C)(C)C (Cbz-Lys(Acryloyl)-Gly-OtBu) ?
Return: 5.21

====

# measurement-notes: Half life in mouse plasma at 1 uM by LC-MS/MS analysis
# Type: ADME, cell-free
I'd be grateful if you could share measured half-life at 1 µM for these entries.

Enquiry: Quick one: half-life at 1 µM of C=CC(=O)NCCCC[C@H](NC(=O)OCc1ccccc1)C(=O)N1CCN(c2ccccc2Cl)CC1 ?
Return: > 8 h

Enquiry: Which value of half-life at 1 µM has been reported for C=CC(=O)NCCCC[C@H](NC(=O)Cc1ccccc1)C(=O)N1CCN(c2cccc(C)n2)CC1 in the records?
Return: > 24 h

====

# target-or-test-system: UniProt:P21980
# Sequence (P21980 whole entry): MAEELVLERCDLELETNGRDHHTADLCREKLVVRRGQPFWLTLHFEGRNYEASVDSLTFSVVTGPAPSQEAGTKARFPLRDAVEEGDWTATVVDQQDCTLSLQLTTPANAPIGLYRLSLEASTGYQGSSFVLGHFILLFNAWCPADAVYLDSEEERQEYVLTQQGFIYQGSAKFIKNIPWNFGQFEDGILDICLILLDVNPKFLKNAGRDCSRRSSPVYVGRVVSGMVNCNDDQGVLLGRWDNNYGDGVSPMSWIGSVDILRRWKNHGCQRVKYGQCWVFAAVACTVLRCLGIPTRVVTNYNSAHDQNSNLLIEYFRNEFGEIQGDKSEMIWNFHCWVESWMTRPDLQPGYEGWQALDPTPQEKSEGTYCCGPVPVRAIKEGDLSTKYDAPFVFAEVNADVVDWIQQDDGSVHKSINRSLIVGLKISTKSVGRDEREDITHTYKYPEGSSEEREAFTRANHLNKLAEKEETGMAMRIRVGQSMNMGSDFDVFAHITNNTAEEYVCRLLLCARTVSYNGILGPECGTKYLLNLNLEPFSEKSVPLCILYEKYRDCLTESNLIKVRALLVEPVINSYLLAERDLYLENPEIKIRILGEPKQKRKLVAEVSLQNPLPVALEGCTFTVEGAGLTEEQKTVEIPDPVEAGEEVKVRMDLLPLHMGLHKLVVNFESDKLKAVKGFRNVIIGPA
# measurement-notes: Irreversible inhibition of transglutaminase 2
pIC50: −log10 of the molar value.
Decide by pIC50: equal to or exceeding 6 means criterion met, less means criterion not met.

Enquiry: Evaluate C=CC(=O)NCCCC[C@H](NC(=O)c1ccc2ccccc2c1)C(=O)N1CCN(c2cccc(C)n2)CC1 : pIC50 at minimum 6?
Return: criterion not met

Enquiry: Say whether C=CC(=O)NCCCC[C@H](NC(=O)OCc1ccccc1)C(=O)N1CCN(c2ccccn2)CC1 shows pIC50 of 6 or more.
Return: criterion met

Enquiry: Tell me whether pIC50 is at least 6 here: C=CC(=O)NCCCC[C@H](NC(=O)OCc1c(F)cccc1F)C(=O)O
Return: criterion not met

Enquiry: Exam item: decide whether the reported pIC50 for C=CC(=O)NCCCC[C@H](NC(=O)OCc1ccccc1)C(=O)N1CCN(c2ncccc2C)CC1 is at least 6.
Return: criterion met

Enquiry: Quick check: does C=CC(=O)NCCCC[C@H](NC(=O)OCc1cccc2ccccc12)C(=O)O have pIC50 greater than or equal to 6?
Return: criterion not met

Enquiry: State whether the measured pIC50 reaches 6, counting equality as reaching it, for C=CC(=O)NCCCC[C@H](NC(=O)OCc1ccccc1)C(=O)N1CCCC1
Return: criterion met

Enquiry: I'd appreciate it if you could say whether C=CC(=O)NCCCC[C@H](NC(=O)Cc1ccccc1)C(=O)N1CCN(c2cccc(C)n2)CC1 has pIC50 at least equal to 6.
Return: criterion met

Enquiry: Please check the record C=CC(=O)NCCCC[C@H](NC(=O)OCc1ccc(F)cc1)C(=O)O and state if its pIC50 is at or above 6.
Return: criterion not met

Enquiry: Dear colleague, could you confirm whether C=CC(=O)NCCCC[C@H](NC(=O)OCc1cccc(C(F)(F)F)c1)C(=O)O has pIC50 at or above 6?
Return: criterion not met

Enquiry: Hi team, for C=CC(=O)NCCCC[C@H](NC(=O)OCc1ccccc1)C(=O)N1CCN(c2cc(Cl)ccc2OC)CC1 , is the recorded pIC50 at or above 6?
Return: criterion met

Enquiry: // inclusive: pIC50 at least 6? input: C=CC(=O)NCCCC[C@H](NC(=O)OCc1ccccc1Cl)C(=O)O
Return: criterion not met

Enquiry: hey, is pIC50 for this one >= 6? C=CC(=O)NCCCC[C@H](NC(=O)OCc1ccccc1)C(=O)O
Return: criterion not met

Enquiry: I'd appreciate it if you could say whether C=CC(=O)NCCC1C[C@@H](C(=O)N2CCN(c3cccc(C)n3)CC2)N(C(=O)OC(C)(C)C)C1 (mixture of isomers) has pIC50 at least equal to 6.
Return: criterion not met
